assay.target: T1, rhIL-1RAcP/Fc Chimera (human, UniProt Q9NPH3 21-359)
T1 construct: also called P013_03; P013-03
T1 sequence (looked up): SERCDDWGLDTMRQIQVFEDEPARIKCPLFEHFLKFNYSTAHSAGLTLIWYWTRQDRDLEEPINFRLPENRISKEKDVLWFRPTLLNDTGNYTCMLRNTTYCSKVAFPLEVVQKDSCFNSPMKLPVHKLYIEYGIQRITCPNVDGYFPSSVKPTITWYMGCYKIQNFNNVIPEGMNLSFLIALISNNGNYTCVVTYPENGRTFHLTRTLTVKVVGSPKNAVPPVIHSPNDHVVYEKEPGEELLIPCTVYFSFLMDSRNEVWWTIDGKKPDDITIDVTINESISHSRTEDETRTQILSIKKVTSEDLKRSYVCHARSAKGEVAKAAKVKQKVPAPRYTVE
test.method.notes: ELISA, primary supernatant, coated hu-IL-1RAcP-Fc
assay.metric: hu-IL1RaP ELISA (OD)
Answer in OD, number only, no unit symbol.

# count of solved cases: 2
P013.S.02.B.C03 (antibody, V domains shown, rabbit monoclonal antibody; also called P013.A.00085.G07) VH: QSLEESGGRLVTPGTPLTLTCTVSGIDLSSYAMGWVRQAPGKGLEYIGIISNSGTTYYASWAKGRFTISKTSSTTVDLKMTSPTTEDTATYFCARDRYANTHGIFSLWGQGTLVTVSS VL: DIVMTQTPASVSAPVGGTVTINCQASESIYSDLAWYQQKPGQPPKLLISFVATLESGVPSRFKGSGSGTEFTLTISDLESADAATYYCQCTYGGSGSGNGAAFGGGTEVVVK ... 3.6
P013.S.01.B.C06 (antibody, V domains shown, rabbit monoclonal antibody; also called P013.A.00014.D06) VH: QSVEESGGRLVTPGGSLTLTCTVSGFSLSIYAMGWFRQAPGKGLEWIGDIYAGSGSTWYASWAKGRFTISKTSTTVDLKITSPTTEDTATYFCAREIDAGYVGYGFNLWGQGTLVTVSS VL: AQALTQTPSSVSAAVGGTVTINCQSSQSVYSDYLAWYQQKPGQPPKLLIYQASKLATGVPSRFKGSGSGTQFTLTISGVQSDDAATYYCQATYYGSGWYRAFGGGTELVVK ... 3.4

Task item: Query (binder): P013.S.02.B.E01 (antibody, V domains shown, rabbit monoclonal antibody; also called P013.A.00013.G07) VH: QSLEESGGRLVTPGTPLTLTCTVSGFSLSIYGMGWVRQAPGEGLEWIGSISSGGSTYYATWAKGRFTISKTSSTTLDLKITSPTTEDTATYFCVRSDGYTNGDYDTYFNLWGQGTLVTVS VL: DIVMTQTPASVSEPVGGTVTIRCQASQSISSWLSWYQQKPGQPPKLLIYQASALASGVSSRFIGSGYGTEFTLTISGVQSEDAATYYCQCTYGIGSNSDYGVAFGGGTEVVVK ; field requested: hu-IL1RaP ELISA (OD)
Reply: 3.7
